- System: TRPC5 (Homo sapiens)
- Construct: expressed in transfected cells; host or cells: HEK 293
- Sequence (Q9UL62 1-973): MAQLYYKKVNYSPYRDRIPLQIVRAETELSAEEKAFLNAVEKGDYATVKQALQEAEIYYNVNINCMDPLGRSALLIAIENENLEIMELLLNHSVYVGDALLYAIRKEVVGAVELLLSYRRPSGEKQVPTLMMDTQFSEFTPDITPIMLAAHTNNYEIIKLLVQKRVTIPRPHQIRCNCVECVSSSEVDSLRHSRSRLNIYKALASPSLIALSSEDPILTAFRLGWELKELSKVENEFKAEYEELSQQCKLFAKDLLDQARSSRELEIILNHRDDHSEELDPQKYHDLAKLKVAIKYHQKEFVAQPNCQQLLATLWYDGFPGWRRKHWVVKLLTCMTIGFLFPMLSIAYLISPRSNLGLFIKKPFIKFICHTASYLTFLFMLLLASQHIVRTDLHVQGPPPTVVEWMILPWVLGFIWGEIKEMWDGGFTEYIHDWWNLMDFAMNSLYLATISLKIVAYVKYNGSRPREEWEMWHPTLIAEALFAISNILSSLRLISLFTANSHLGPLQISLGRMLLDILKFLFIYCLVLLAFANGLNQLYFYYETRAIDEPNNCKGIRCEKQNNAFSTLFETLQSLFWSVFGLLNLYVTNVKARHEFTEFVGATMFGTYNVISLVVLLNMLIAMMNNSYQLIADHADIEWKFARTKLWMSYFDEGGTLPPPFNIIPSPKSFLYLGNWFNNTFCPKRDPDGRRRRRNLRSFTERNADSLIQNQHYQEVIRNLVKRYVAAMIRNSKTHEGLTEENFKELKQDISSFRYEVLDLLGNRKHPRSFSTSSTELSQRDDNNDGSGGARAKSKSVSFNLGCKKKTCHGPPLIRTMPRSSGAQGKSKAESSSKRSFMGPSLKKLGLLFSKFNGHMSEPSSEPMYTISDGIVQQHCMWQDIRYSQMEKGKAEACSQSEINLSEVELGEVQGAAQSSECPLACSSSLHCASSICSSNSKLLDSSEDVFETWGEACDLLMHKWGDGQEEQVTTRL
- Method summary: TRPC5 automated patch clamp assay (Qpatch), current block after rosiglitazone stimulation
- Assay type: cell-based
- Test conditions: Table 4; HEK293 cells overexpressing TRPC5; rosiglitazone stimulation; 80 mV; read-out: TRPC5_QP_ XC50_80
Could you please report measured IC50 for the items listed next?

Here's what some known entries look like.
[
  {
    "Molecule": "Cc1ccccc1CN1CCN(c2cn[nH]c(=O)c2C2CCOCC2)CC1=O",
    "System": "TRPC5 (Homo sapiens)",
    "IC50": "10 to 500 µM"
  },
  {
    "Molecule": "C[C@@H]1CN(Cc2ccccc2C(F)(F)F)CCN1c1cn[nH]c(=O)c1Cl [drawing 716]",
    "System": "TRPC5 (Homo sapiens)",
    "IC50": "1 to 5 µM"
  },
  {
    "Molecule": "CCCc1c(N2CCN(Cc3ccccc3C)C(=O)C2)cn[nH]c1=O",
    "System": "TRPC5 (Homo sapiens)",
    "IC50": "10 to 500 µM"
  }
]

Return reported IC50 values for all items listed beneath this line.
1. Cc1cc(F)ccc1CN1CCN(c2cn[nH]c(=O)c2Cl)CC1=O
2. Cc1cc(Cl)ccc1CN1CCN(c2cn[nH]c(=O)c2Cl)CC1=O [drawing 737]

Resp:
["1 to 5 µM", "1 to 5 µM"]
